targetUnderTest: Homo sapiens triosephosphate isomerase (HsTIM) (Homo sapiens, UniProt P60174)
Construct: made in house; host or cells: Escherichia coli
Sequence (P60174 whole entry): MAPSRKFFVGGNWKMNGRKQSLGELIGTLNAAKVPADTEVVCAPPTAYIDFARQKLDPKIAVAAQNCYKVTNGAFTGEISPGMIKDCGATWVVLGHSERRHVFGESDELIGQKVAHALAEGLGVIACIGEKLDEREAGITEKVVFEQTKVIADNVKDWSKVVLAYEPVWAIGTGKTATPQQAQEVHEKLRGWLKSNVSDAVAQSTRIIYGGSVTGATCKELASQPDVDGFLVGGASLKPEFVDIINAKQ
assayOverview: Enzymatic activity of TIM, coupled enzyme assay
Format: biochemical
valueKind: inhibition at 10 µM
Hi, when you answer, please include the unit after the number. Thanks!

Query the reported inhibition at 10 µM for Homo sapiens triosephosphate isomerase (HsTIM) (Homo sapiens, UniProt P60174); item: O=C1/C(=C2\Nc3ccccc3C2=O)Nc2ccccc21
0%

Fill in the recorded inhibition at 10 µM for this compound, with Homo sapiens triosephosphate isomerase (HsTIM) (Homo sapiens, UniProt P60174) as test system: O=C1/C(=C/c2ccccc2)CCC/C1=C\c1ccccc1
0%

Query for Homo sapiens triosephosphate isomerase (HsTIM) (Homo sapiens, UniProt P60174): what inhibition at 10 µM does the record show for O=C(N/N=C/C=C/c1ccco1)c1ccccn1 ?
0%
